Tested on: K. pneumoniae UFR24
Assay: MIC of ceftazidime (CAZ) at fixed concentration of compound (synergy), broth microdilution
Assay type: cell-based
Stated conditions: MIC of ceftazidime with compound fixed at 4 μg/mL; strain UFR24 (K. pneumoniae)
MIC combination of CAZ and compounds of the invention at 4 μg/mL by entry:
Property label: MIC combination of CAZ and compounds of the invention at 4 μg/mL

| Molecule | Value measured |
| --- | --- |
| O=C1N2CC(n3nccn3)=CC(C2)N1OS(=O)(=O)O (centres unmarked) | ≤0.25 |
| O=C1N2CC(n3ccsc3=O)=CC(C2)N1OS(=O)(=O)[O-].[Na+] (centres unmarked) | 0.5 |
| O=C1N2CC(n3ccnn3)=C[C@H](C2)N1OS(=O)(=O)O | <0.25 |
| O=C1N2CC(n3ccnn3)=CC(C2)N1OS(=O)(=O)[O-].[Na+] (centres unmarked) | ≤0.25 |
| O=C1N2CC(n3cccn3)=CC(C2)N1OC(F)(F)C(=O)[O-].[Li+] (centres unmarked) | 0.5 |
